Ref: ChEMBL document CHEMBL1201862

As shown below, each of these molecules has a reported GI50 value.
test system: SW-620; assay: NCI tumour cell line growth inhibition, 48 h
Active and inactive are the calls of the source. Rule as the data show it: active = GI50 up to about 1.1 µM and inactive = higher.
readoutType: GI50

INSERT INTO measurements (molecule, readouttype, result) VALUES
  ('COc1ccc2c3c1O[C@H]1C(OC)C=CC4C(C2)N(Cc2cccs2)CCC341 (stereo not given in full)', 'GI50', '> 100 µM (inactive)'),
  ('NCCOc1ccc(/C(=C(/Cl)c2ccccc2)c2ccccc2)cc1', 'GI50', '4.19 µM (inactive)'),
  ('CC1=C2C(O)C(C(C)C(=O)N(C)C)CCC2(C)C=CC1=O (stereo not given)', 'GI50', '> 100 µM (inactive)'),
  ('O=C1C=CC(=O)C2C1Cc1ccccc1C2c1ccccc1 (stereo not given)', 'GI50', '27.7 µM (inactive)'),
  ('CC1C(=O)C(C)C(c2ccco2)N(N=O)C1c1ccco1 (stereo not given)', 'GI50', '> 100 µM (inactive)'),
  ('Cc1cc(NC(=S)Nc2ccccc2)c(NC(=S)Nc2ccccc2)cc1C', 'GI50', '11.6 µM (inactive)'),
  ('COc1cc(OC)c(/C=C\c2cc(/C=C/c3c(OC)cc(OC)cc3OC)c3ccccc3[n+]2C)c(OC)c1', 'GI50', '2.39 µM (inactive)'),
  ('COc1cc(C2SC(C)C(=O)N2c2ccc(-c3csc(NS(=O)(=O)c4ccc(Cl)c(OC)c4)n3)cc2)ccc1O (stereo not given)', 'GI50', '31.8 µM (inactive)'),
  ('O=C(CCc1ccccc1)n1cccc1CO', 'GI50', '> 100 µM (inactive)'),
  ('O=[N+]([O-])c1ccc(-c2csc3nc(-c4ccccc4)nn23)cc1', 'GI50', '> 100 µM (inactive)');

====

system: A549; assay: NCI tumour cell line growth inhibition, 48 h
Activity calls are given as the source filed them. Cut-off read from the data, not from the text of the source: active = GI50 up to about 1.1 µM and inactive = higher.
Outcome codes: class 1 = active, class 0 = inactive

INSERT INTO results (compound, categorylabel) VALUES
  ('Nc1nc2[nH]cnc2c(=S)[nH]1', 'class 0'),
  ('Cc1occc1C(=S)Nc1ccc(Cl)c(/C=N/OC(C)(C)C)c1', 'class 0'),
  ('CCc1ccc(CCC(=O)O)nc1', 'class 0'),
  ('O=C1C=CC(CC(=O)c2ccc3ccccc3c2)O1 (stereo unspecified)', 'class 0'),
  ('CC(=O)Nc1ccc(NC(=O)c2c(Cl)c(Cl)c(Cl)c(Cl)c2-c2nc3ccccc3[nH]2)cc1', 'class 0'),
  ('COC(=O)[C@H]1CO[C@@H](C(C)(C)C)N1C(=O)N1C=CC(=O)C[C@@H]1C', 'class 0'),
  ('CC1(C)CCC2=C(O1)/C(=N\Nc1ccc(F)cc1)c1ccccc1C2=O', 'class 0'),
  ('CC(CN(C)C)/C(=N\Nc1ccccc1)c1ccccc1 (stereo unspecified)', 'class 1'),
  ('CC(=O)C1CC=C(C)CC1 (stereo unspecified)', 'class 0'),
  ('COc1cc(OC)cc(OCc2nc3cc(C(F)(F)F)ccc3nc2-c2ccccc2)c1', 'class 0'),
  ('COC(=O)C(C)(C)/N=C/N(C)C', 'class 0');

====

tested on: TK-10; assay: NCI tumour cell line growth inhibition, 48 h
Activity calls are given as the source filed them. Rule as the data show it: active = GI50 up to about 1.1 µM and inactive = higher. Peptide text beside a SMILES is read from it. * marks the point of attachment. Boc = CC(C)(C)OC(=O)*; OtBu = CC(C)(C)O*
readoutType: GI50

INSERT INTO results (compound, result) VALUES
  ('OCC1C(O)C(O)[C@@H]2SCCN12 (stereo not given in full)', '> 100 µM (inactive)'),
  ('CC(C)(C)OC(=O)CC(NC(=O)OC(C)(C)C)C(=O)NC(Cc1ccccc1)C(N)=O (stereo not given) (Boc-Asp(OtBu)-Phe-NH2; configuration not given here)', '> 100 µM (inactive)'),
  ('Cc1ccc(S(=O)(=O)CC(=O)CC(=O)C(=O)Nc2cccc(C(F)(F)F)c2)cc1', '> 100 µM (inactive)'),
  ('C/C(=C/CC[C@](C)(OC1OC(CO)C(O)C(O)C1O)[C@H]1CC[C@]2(C)[C@@H]1CC[C@@H]1[C@@]3(C)CC[C@H](O)C(C)(C)[C@@H]3C[C@H](O)[C@]12CO)CO (stereo not given in full)', '> 100 µM (inactive)'),
  ('CN(C)CCNC(=O)c1cccc2ncc(-c3ccccc3)nc12', '6.93 µM (inactive)'),
  ('CCN(CC)CCOc1ccc(C(=C2CCCCC2)c2ccc(OCCN(CC)CC)cc2)cc1', '1.5 µM (inactive)'),
  ('COc1ccc2cc1Oc1ccc(cc1)CC1c3cc(c(OC)cc3CCN1C)Oc1c3c(cc4c1C(C2)N(C)CC4)OCO3 (stereo not given)', '2.19 µM (inactive)'),
  ('Cc1cc(C)c2c(=O)n(CN3CCC(O)(c4ccccc4)CC3)sc2n1', '11.6 µM (inactive)'),
  ('COc1ccc(CSCc2cc(OC)c(OC)c(OC)c2)cc1', '> 100 µM (inactive)'),
  ('CCOC(=O)C(=O)Nc1ccc(C)c(C)c1', '> 100 µM (inactive)'),
  ('CCOc1ncn(-c2ccc(NC(=S)Nc3ncccn3)cc2)n1', '41.3 µM (inactive)'),
  ('CN(C)c1ccc(/C=C(\NC(=O)c2ccccc2)c2nn(C)c(=O)o2)cc1', '> 100 µM (inactive)'),
  ('CC(=O)O[C@]1(C)OC(=O)[C@@H](C)N1[N+](=O)[O-]', '> 100 µM (inactive)'),
  ('COc1cccc(/C=C2\CCC(CN(C)C)C2=O)c1 (stereo not given)', '10.2 µM (inactive)'),
  ('CN1CCC(=O)/C(=C/c2ccccc2)C1', '16.1 µM (inactive)'),
  ('N=C1OC(c2cccc(Cl)c2)C(NNS(=O)(=O)c2ccccc2)=C1O (stereo not given)', '37.7 µM (inactive)'),
  ('CC(C)=CC1C(C(=O)OCc2cc3c(cc2Cl)OCO3)C1(C)C (stereo not given)', '63.2 µM (inactive)'),
  ('COc1cc(C23OCC(Cc4cc5c(cc42)OCO5)C3CO)cc(OC)c1OC (stereo not given)', '> 24.4 µM (inactive)'),
  ('Cc1ccc(C2SC(=N)Nc3c2c(C)nn3C(=O)c2ccccc2O)cc1 (stereo not given)', '> 10 µM (inactive)'),
  ('O=C1c2ccccc2C(=O)c2sc(Nc3ccc(Cl)c(Cl)c3)nc21', '11.1 µM (inactive)');
